# target_desc: EGFR(D770_N771insSVD) expressing Ba/F3 stable cell line (Homo sapiens, UniProt P00533, DUP768-770, cells depend on it)
# Sequence (P00533 with tags, fused parts or gaps DUP768-770): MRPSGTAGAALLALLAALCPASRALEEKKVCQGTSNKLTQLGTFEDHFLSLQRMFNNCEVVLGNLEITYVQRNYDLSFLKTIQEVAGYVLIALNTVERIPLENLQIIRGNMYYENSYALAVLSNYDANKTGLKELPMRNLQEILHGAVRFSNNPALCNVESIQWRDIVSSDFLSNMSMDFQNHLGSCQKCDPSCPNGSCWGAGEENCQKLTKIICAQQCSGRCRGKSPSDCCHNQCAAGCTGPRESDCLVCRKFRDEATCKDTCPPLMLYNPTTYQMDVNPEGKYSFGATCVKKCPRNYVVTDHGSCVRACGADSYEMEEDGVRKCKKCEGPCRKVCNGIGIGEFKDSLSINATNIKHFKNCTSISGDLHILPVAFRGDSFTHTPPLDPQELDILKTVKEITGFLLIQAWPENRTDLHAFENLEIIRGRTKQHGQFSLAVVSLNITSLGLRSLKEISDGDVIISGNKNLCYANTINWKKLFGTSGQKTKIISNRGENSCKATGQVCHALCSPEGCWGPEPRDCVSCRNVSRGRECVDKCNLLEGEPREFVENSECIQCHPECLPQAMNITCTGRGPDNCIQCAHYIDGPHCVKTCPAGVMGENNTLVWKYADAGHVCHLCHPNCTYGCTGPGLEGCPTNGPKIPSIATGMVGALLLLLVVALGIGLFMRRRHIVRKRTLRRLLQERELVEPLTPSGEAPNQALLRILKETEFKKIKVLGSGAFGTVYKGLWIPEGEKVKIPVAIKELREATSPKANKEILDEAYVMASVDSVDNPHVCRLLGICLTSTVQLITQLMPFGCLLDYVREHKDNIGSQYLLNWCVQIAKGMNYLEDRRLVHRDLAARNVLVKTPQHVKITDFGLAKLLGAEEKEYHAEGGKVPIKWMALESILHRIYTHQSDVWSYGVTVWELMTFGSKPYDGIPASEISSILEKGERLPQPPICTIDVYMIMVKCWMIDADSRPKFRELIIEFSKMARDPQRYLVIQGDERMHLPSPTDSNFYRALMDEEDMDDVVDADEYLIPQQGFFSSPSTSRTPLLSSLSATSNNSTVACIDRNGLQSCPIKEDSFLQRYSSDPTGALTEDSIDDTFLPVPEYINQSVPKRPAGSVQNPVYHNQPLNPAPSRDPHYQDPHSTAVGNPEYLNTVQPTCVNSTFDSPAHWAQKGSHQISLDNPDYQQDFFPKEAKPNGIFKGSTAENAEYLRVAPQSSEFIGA
# test_details: Cellular proliferation (Alamar Blue) assay, EGFR(D770_N771insSVD) Ba/F3
# Format: cell-based
# test_settings: 72 hr, read-out: D770 IC50
# Protocol: Cell line details: • 1. EGFR(D770_N771insSVD) expressing Ba/F3 stable cell line • 2. EGFR (A767_dupASV) expressing Ba/F3 stable cell line • 3. A431 cells • 4. EGFR (H773insNPH) expressing Ba/F3 stable cell line • 5. HER2 (A775_G776insYVMA) expressing Ba/F3 stable cell line • 1. Seed cells at 5000 for A431 and 15,000 cells for Ba/F3 in 100 μL/well in complete media (for A431: DMEM with 10% FBS and for Ba/F3 cells: RPMI with 10% FBS) in 96-well tissue culture plate. […]
property_name: GI50 (nM)

(a) C=CC(=O)Nc1cccc(Nc2nc(Nc3cnn(C)c3)ncc2-c2cc(F)cc(OC)c2)c1 [Compound 127]
(b) C=CC(=O)Nc1ccc(F)c(Nc2nc(Nc3cnn(C)c3)ncc2-c2cnc(Cl)c(Cl)c2)c1 [Compound 17]
Param metric = GI50; output whichever of a , b has the minimum value. API: response body contains the label of the selected item.
b

----------
# target_desc: EGFR (A767_dupASV) expressing Ba/F3 stable cell line (Homo sapiens, UniProt P00533, DUP767-769, cells depend on it)
# Sequence (P00533 with tags, fused parts or gaps DUP767-769): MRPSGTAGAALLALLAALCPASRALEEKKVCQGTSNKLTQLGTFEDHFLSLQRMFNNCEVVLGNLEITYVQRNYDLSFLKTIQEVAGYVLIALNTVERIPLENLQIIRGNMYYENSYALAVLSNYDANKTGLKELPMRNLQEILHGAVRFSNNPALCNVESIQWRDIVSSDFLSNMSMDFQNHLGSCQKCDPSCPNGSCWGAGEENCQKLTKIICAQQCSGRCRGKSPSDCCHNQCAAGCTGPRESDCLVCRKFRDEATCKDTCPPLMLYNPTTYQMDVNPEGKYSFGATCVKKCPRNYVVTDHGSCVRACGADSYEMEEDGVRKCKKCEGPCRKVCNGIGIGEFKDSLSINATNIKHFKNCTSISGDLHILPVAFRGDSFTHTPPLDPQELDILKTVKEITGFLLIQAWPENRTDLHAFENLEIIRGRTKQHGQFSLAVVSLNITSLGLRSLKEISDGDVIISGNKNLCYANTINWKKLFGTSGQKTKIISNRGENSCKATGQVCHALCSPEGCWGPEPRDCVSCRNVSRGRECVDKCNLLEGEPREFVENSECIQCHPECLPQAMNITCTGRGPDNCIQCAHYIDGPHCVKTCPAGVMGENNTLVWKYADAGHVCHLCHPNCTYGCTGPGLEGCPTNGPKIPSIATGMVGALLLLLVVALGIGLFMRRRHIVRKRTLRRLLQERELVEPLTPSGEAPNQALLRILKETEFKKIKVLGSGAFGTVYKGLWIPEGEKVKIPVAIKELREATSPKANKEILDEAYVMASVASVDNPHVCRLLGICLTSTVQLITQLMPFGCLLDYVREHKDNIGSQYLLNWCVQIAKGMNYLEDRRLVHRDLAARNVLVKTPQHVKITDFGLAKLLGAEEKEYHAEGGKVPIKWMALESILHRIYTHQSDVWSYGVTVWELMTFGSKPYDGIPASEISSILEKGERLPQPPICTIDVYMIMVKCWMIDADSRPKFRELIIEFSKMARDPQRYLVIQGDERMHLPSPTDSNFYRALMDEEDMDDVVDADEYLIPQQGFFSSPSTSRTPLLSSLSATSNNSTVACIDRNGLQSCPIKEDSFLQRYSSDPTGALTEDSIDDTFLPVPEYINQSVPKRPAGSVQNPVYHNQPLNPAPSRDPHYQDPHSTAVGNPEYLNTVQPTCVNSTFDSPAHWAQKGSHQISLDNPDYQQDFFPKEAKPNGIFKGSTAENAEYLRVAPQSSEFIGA
# test_details: Cellular proliferation (Alamar Blue) assay, EGFR (A767_dupASV) Ba/F3
# Assay type: cell-based
# test_settings: 72 hr, read-out: A767 IC50
Where a name gives a salt, the structure may show the parent alone.
property_name: GI50 (nM)

Field: example entries. Status: answers known.
compound | GI50 / nM
C=CC(=O)Nc1ccc(F)c(Nc2nc(Nc3cnn(C)c3)ncc2-c2ccc(OC)c(OC)c2)c1 | 896
C=CC(=O)Nc1ccc(F)c(Nc2nc(Nc3cnn(C)c3)ncc2-c2ccc(OC)c(F)c2)c1 | 36
C=CC(=O)Nc1ccc(F)c(Nc2nc(Nc3cnn(C)c3)ncc2-c2ccc(OC(F)F)c(F)c2)c1 | 9
C=CC(=O)Nc1cccc(Nc2nc(Nc3cnn(C)c3)ncc2-c2cc(F)c(Br)c(Cl)c2)c1 | 81
C=CC(=O)Nc1cccc(Nc2nc(Nc3cnn(C)c3)ncc2-c2ccc(Cl)c(F)c2)c1 | 23

(a) C=CC(=O)Nc1cc(Br)cc(Nc2nc(Nc3cnn(C)c3)ncc2-c2ccc(OC(F)F)c(F)c2)c1
(b) Cn1cc(Nc2ncc(-c3ccc(Br)c(F)c3)c(Nc3cc(NC(=O)/C=C/CN4CCC4)ccc3F)n2)cn1
(c) C=CC(=O)Nc1ccc(F)c(Nc2nc(Nc3cnn(C)c3)ncc2-c2cc(F)c(C(F)(F)F)c(F)c2)c1 [Compound 20, trifluoroacetate]
Reorder: GI50, max to min. Reply format: the labels, ordered as requested.
b, c, a
(b: 299 nM, c: 61 nM, a: 40 nM)

----------
# target_desc: HER2 (A775_G776insYVMA) expressing Ba/F3 stable cell line (Homo sapiens, UniProt P04626, DUP772-775, cells depend on it)
# Sequence (P04626 with tags, fused parts or gaps DUP772-775): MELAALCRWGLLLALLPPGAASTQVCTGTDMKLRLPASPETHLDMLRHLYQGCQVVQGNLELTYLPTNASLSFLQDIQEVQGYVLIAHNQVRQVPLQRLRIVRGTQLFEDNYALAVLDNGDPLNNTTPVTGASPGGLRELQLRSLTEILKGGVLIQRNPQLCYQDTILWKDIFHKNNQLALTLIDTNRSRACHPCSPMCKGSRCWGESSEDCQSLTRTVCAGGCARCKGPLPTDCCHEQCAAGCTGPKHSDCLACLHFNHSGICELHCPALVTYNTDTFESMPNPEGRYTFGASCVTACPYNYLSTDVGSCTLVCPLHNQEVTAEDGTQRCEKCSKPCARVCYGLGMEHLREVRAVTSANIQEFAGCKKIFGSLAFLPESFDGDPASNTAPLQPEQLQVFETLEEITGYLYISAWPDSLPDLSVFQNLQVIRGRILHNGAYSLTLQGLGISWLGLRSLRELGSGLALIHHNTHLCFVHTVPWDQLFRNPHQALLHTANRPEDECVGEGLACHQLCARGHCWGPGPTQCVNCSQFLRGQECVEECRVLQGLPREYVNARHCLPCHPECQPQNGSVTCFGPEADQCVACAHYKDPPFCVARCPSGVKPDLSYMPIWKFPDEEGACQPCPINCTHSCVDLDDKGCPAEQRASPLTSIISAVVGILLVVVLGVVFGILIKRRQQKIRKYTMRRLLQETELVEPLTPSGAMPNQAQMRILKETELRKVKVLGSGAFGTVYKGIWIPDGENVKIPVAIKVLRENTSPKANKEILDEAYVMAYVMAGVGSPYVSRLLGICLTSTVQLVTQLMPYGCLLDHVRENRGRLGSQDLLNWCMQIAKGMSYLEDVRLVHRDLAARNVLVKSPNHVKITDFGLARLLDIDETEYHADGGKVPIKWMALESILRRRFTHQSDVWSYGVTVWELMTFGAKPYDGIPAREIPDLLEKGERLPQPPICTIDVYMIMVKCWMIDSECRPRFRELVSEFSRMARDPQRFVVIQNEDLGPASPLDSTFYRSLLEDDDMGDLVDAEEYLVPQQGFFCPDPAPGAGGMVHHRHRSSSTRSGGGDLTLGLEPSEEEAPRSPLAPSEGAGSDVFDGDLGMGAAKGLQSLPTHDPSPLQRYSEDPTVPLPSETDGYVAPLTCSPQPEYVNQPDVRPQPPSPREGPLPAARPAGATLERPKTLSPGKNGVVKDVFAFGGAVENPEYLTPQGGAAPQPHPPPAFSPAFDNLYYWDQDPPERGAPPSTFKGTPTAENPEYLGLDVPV
# test_details: Cellular proliferation (Alamar Blue) assay, HER2 (A775_G776insYVMA) Ba/F3
# Type: cell-based
# test_settings: HER2 (A775_G776insYVMA) Ba/F3 cells; 72 hr; Alamar Blue; read-out: YVMA IC50
# Procedure: Cell line details: • 1. EGFR(D770_N771insSVD) expressing Ba/F3 stable cell line • 2. EGFR (A767_dupASV) expressing Ba/F3 stable cell line • 3. A431 cells • 4. EGFR (H773insNPH) expressing Ba/F3 stable cell line • 5. HER2 (A775_G776insYVMA) expressing Ba/F3 stable cell line • 1. Seed cells at 5000 for A431 and 15,000 cells for Ba/F3 in 100 μL/well in complete media (for A431: DMEM with 10% FBS and for Ba/F3 cells: RPMI with 10% FBS) in 96-well tissue culture plate. […]
Structures can show the parent of a compound that is named as a salt.
property_name: GI50 (nM)

compound | units_symbol | recorded_number
C=CC(=O)Nc1ccc(F)c(Nc2nc(Nc3cnn(C)c3)ncc2-c2ccc(F)c(C(F)(F)F)c2)c1 [Compound 25] | nM | 341
C=CC(=O)Nc1ccc(F)c(Nc2nc(Nc3cnn(C)c3)ncc2-c2cnc(OC)c(Cl)c2)c1 [Compound 31, trifluoroacetate] | nM | 94
C=CC(=O)Nc1ccc(F)c(Nc2nc(Nc3cnn(C)c3)ncc2-c2ccc(N3CCOCC3)c(F)c2)c1 [Compound 76] | nM | 240

(1) C=CC(=O)Nc1ccc(F)c(Nc2nc(Nc3cnn(C)c3)ncc2-c2ccc(OC(F)(F)F)c(F)c2)c1 [Compound 14]
(2) [2H]C([2H])([2H])Oc1cc(F)cc(-c2cnc(Nc3cnn(C)c3)nc2Nc2cc(NC(=O)C=C)ccc2F)c1 [Compound 165]
(3) C=CC(=O)Nc1cc(Br)cc(Nc2nc(Nc3cnn(C)c3)ncc2-c2ccc(OC(F)F)c(F)c2)c1 [Compound 132]
(4) C=CC(=O)Nc1ccc(F)c(Nc2nc(Nc3cnn(C)c3)ncc2-c2ccc(F)cc2C(F)(F)F)c1 [Compound 107]
(5) C=CC(=O)Nc1cccc(Nc2nc(Nc3cnn(C)c3)ncc2-c2ccc(F)c(Cl)c2)c1 [Compound 49]
Reorder: GI50, max to min. Reply format: the labels, ordered as requested.
4, 3, 2, 1, 5

(P) [2H]C([2H])([2H])n1cc(Nc2ncc(-c3cc(F)cc(F)c3)c(Nc3cc(NC(=O)/C=C/CN(C)C)ccc3F)n2)cn1 [Compound 167]
(Q) C=CC(=O)Nc1cccc(Nc2nc(Nc3cnn(C)c3)ncc2-c2ccc(Br)c(F)c2)c1 [Compound 115]
(R) C=CC(=O)Nc1cccc(Nc2nc(Nc3cnn(C)c3)ncc2-c2cc(F)c(F)c(F)c2)c1 [Compound 148]
(S) C=CC(=O)Nc1ccc(F)c(Nc2nc(Nc3cnn(C)c3)ncc2-c2cccc(Br)c2F)c1 [Compound 113]
Reorder: GI50, max to min. Reply format: the labels, ordered as requested.
S, P, Q, R

----------
# target_desc: EGFR(D770_N771insSVD) expressing Ba/F3 stable cell line (Homo sapiens, UniProt P00533, DUP768-770, cells depend on it)
# test_details: Cellular proliferation (Alamar Blue) assay, EGFR(D770_N771insSVD) Ba/F3
# Type: cell-based
# test_settings: 72 hr, read-out: D770 IC50
Structures can show the parent of a compound that is named as a salt.
property_name: GI50 (nM)

Field: example entries. Status: answers known.
molecule | property_name | recorded_number
C=CC(=O)Nc1cc(F)cc(Nc2nc(Nc3cnn(C)c3)ncc2-c2ccc(Br)c(F)c2)c1 [Compound 97] | GI50 | 13
C=CC(=O)Nc1ccc(F)c(Nc2nc(Nc3cnn(C)c3)ncc2-c2cc(F)cc(C(F)F)c2)c1 [Compound 15] | GI50 | 36
[2H]C([2H])([2H])n1cc(Nc2ncc(-c3ccc(Br)c(F)c3)c(Nc3cc(NC(=O)C=C)ccc3F)n2)cn1 [Compound 169] | GI50 | 36
C=CC(=O)Nc1ccc(F)c(Nc2nc(Nc3cnn(C)c3)ncc2-c2cc(F)cc(OC(F)(F)F)c2)c1 [Compound 172] | GI50 | 843
C=CC(=O)Nc1ccc(F)c(Nc2nc(Nc3cnn(C)c3)ncc2-c2ccc(N3CC(OC)C3)c(F)c2)c1 [Compound 79] | GI50 | 312

(A) C=CC(=O)Nc1ccc(F)c(Nc2nc(Nc3cnn(C)c3)ncc2-c2ccc(N3CCCCCC3)c(F)c2)c1 [Compound 85]
(B) C=CC(=O)Nc1ccc(F)c(Nc2nc(Nc3cnn(C)c3)ncc2-c2cnc(OC)c(Cl)c2)c1 [Compound 31, trifluoroacetate]
Param metric = GI50; output whichever of A , B has the minimum value. API: response body contains the label of the selected item.
B
(B: 50 nM, A: 314 nM)

----------
# target_desc: EGFR (H773insNPH) expressing Ba/F3 stable cell line (Homo sapiens, UniProt P00533, DUP771-773, cells depend on it)
# Sequence (P00533 with tags, fused parts or gaps DUP771-773): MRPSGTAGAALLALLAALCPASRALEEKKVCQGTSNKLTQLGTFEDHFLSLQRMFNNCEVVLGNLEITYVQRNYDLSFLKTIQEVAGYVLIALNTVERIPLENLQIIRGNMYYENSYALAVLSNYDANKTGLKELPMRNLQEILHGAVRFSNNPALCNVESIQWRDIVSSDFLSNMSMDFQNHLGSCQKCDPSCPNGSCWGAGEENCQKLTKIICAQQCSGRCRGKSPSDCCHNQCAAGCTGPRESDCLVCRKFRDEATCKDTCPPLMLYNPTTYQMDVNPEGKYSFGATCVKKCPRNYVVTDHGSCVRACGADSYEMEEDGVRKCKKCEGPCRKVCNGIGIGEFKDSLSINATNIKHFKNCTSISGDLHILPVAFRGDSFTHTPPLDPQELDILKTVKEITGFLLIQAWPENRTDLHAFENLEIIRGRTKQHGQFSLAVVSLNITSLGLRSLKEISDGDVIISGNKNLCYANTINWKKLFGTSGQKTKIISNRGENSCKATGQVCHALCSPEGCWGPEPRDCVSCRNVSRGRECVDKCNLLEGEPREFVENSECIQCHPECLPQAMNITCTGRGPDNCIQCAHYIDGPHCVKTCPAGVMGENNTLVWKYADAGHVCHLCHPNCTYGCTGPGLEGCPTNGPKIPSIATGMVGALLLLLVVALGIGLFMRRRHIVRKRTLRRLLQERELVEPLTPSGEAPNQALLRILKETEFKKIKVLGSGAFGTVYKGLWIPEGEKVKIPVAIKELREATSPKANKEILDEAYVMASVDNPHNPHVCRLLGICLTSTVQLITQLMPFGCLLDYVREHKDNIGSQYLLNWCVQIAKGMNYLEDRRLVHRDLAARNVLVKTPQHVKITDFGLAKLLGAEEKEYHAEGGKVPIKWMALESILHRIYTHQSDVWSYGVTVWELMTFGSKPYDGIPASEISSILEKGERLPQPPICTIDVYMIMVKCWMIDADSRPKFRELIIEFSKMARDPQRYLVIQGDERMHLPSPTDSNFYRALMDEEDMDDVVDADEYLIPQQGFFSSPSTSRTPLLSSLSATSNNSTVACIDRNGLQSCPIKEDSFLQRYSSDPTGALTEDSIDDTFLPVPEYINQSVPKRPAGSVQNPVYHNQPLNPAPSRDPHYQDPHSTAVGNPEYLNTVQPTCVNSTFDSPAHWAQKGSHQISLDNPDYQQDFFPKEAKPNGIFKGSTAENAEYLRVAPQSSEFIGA
# test_details: Cellular proliferation (Alamar Blue) assay, EGFR (H773insNPH) Ba/F3
# Assay type: cell-based
# test_settings: 72 hr, read-out: NPH IC50
Where a name gives a salt, the structure may show the parent alone.
property_name: GI50 (nM)

molecule | units_symbol | recorded_number
C=CC(=O)Nc1ccc(F)c(Nc2nc(Nc3cnn(C4COC4)c3)ncc2-c2ccc(Cl)c(Cl)c2)c1 [Compound 56] | nM | 84

(I) C=CC(=O)Nc1ccc(F)c(Nc2nc(Nc3cnn(C)c3)ncc2-c2cnc(OC)c(Cl)c2)c1 [Compound 31, trifluoroacetate]
(II) C=CC(=O)Nc1ccc(F)c(Nc2nc(Nc3cnn(C)c3)ncc2-c2cnc(Cl)c(F)c2)c1 [Compound 45]
Param metric = GI50; output whichever of I , II has the minimum value. API: response body contains the label of the selected item.
II
(II: 25 nM, I: 92 nM)

The values you see were collected from patent US20230416232A1.
